Below are Ki values for Glutamate receptor ionotropic, NMDA 1 (Rattus norvegicus, UniProt P35439) collected from several publications.
Numbers only, in nM.

Some solved cases for reference:
compound=CCOC(=O)c1nc2c(=O)[nH]c3cc(Cl)c(-n4ccc[n+]4C=O)cc3n2n1 endpoint_name=Ki recorded_number=19000
compound=CCOC(=O)c1nc2c(O)nc3cc(C(F)(F)F)c(-n4cccc4)cc3n2n1 endpoint_name=Ki recorded_number=75000

Here are 5 compounds. What values of Ki were reported for them?
1. CCOC(=O)c1nc2c(=O)[nH]c3cc([N+](=O)[O-])c(-n4cccc4)cc3n2n1
2. CCOC(=O)c1nc2c(O)nc3cc([N+](=O)[O-])c(N)cc3n2n1
3. CCOC(=O)c1nc2c(=O)[nH]c3cc(C(F)(F)F)c([N+](=O)[O-])cc3n2n1
4. CCOc1c(C)[nH]c(C(=O)O)c1/C=C/C(=O)Nc1ccccc1
5. O=C(O)c1cc2n(n1)C(C(=O)O)Nc1cc(Cl)ccc1-2 (stereo not drawn)

1: 84000; 2: 3700; 3: 62000; 4: 6760; 5: 480

* * *

pKi: −log10 of the molar value.
Assembled from different publications: pKi for Glutamate receptor ionotropic, NMDA 1 (Rattus norvegicus, UniProt P35439).
Hi, to clarify the labels: 1 (yes) covers pKi from 6 upward, 0 (no) covers anything below 6.

Use the examples below as a reference point.
compound=O=Cc1ccn(-c2cc3c(cc2C(F)(F)F)[nH]c(=O)c2nc(C(=O)O)nn23)c1 label="0 (no)"
compound=Cc1[nH]c(C(=O)O)c(/C=C/C(=O)Nc2ccccc2)c1Cl label="1 (yes)"
compound=Cc1[nH]c(C(=O)O)c(/C=C/C(=O)Nc2ccccc2)c1Br label="1 (yes)"

Check if pKi >= 6 (inclusive). Item: `Nc1cc2c(=O)n(O)c(=O)[nH]c2cc1Cl`
0 (no)

Assess whether reported pKi for `Cc1[nH]c(C(=O)O)c(/C=C/C(=O)Nc2ccccc2)c1C` sits at 6 or higher.
1 (yes)

State whether the measured pKi reaches 6, counting equality as reaching it, for `O=C(O)Cc1c(C(=O)O)nc2ccccc2c1O`
0 (no)

// inclusive: pKi at least 6? input: `O=C(O)c1nc2c(O)nc3cc(C(F)(F)F)c(-n4cccc4)cc3n2n1`
0 (no)

I'd appreciate it if you could say whether `Nc1ccc(-c2c(O)nc3cc(Cl)cc(Cl)c3c2O)cc1` has pKi at least equal to 6.
1 (yes)

Evaluate `O=C(/C=C/c1c(Br)c[nH]c1C(=O)O)Nc1ccccc1` : pKi at minimum 6?
0 (no)

Textbook exercise: given the entry `Nc1cc2c(cc1[N+](=O)[O-])[nH]c(=O)c1nc(C(=O)O)nn12` , state whether its pKi is greater than or equal to 6.
0 (no)

State whether the measured pKi reaches 6, counting equality as reaching it, for `CC(=O)c1c(C)[nH]c(C(=O)O)c1/C=C/C(=O)Nc1ccccc1`
0 (no)

Given the entry `O=c1[nH]c2cc(Cl)cc(Cl)c2c(=O)n1O` , answer whether its pKi meets or surpasses 6.
1 (yes)

# bool: pKi of `CCOC(=O)c1nc2c(=O)[nH]c3cc(C(F)(F)F)c(N)cc3n2n1` >= 6
0 (no)

Record `O=C(O)Cc1c(C(=O)O)nc2cc(Cl)cc(Cl)c2c1O` ; criterion: pKi no lower than 6. Met?
1 (yes)

Check the entry `O=C(O)c1cc(O)c2c(Cl)cc(Cl)cc2n1` : does pKi equal or exceed 6?
1 (yes)

Is it the case that `CCOC(=O)c1nc2c(O)nc3ccc(Cl)c(Cl)c3n2n1` has pKi reaching or exceeding 6?
0 (no)

Check the entry `O=c1[nH]c2cc(Cl)ccc2c(=O)n1O` : does pKi equal or exceed 6?
1 (yes)

Evaluate `Cc1cc(/C=C/C(=O)Nc2ccccc2)c(C(=O)O)[nH]1` : pKi at minimum 6?
0 (no)

Check this compound for pKi at or above 6: O=C(O)c1cc2n(n1)C(C(=O)O)Nc1cc(Cl)c(Cl)cc1-2 (stereo unspecified)
1 (yes)

Hi, just wondering whether `Cc1ccc(-c2c(O)nc3cc(Cl)cc(Cl)c3c2O)cc1` shows pKi of 6 or higher.
1 (yes)

pKi >= 6 for `O=C(/C=C/c1c(C(=O)O)[nH]c(I)c1I)Nc1ccccc1` ?
1 (yes)

Kindly determine if pKi recorded for CCOC(=O)c1cc2n(n1)C(C(=O)O)Nc1cc(Cl)ccc1-2 (stereo unspecified) is above or exactly 6.
0 (no)

Answer whether pKi of `O=c1[nH]c2cc(Cl)c(Cl)cc2c(=O)n1O` is greater than or equal to 6.
1 (yes)

Hi team, for `O=C(O)c1nc2c(=O)[nH]c3cc(Cl)c(-n4ccnc4)cc3n2n1` , is the recorded pKi at or above 6?
0 (no)

# bool: pKi of `O=C(O)Cc1c(C(=O)O)[nH]c2cc(Cl)cc(Cl)c12` >= 6
1 (yes)
